# test.system: TEM-1 β-lactamase (Escherichia coli, UniProt P62593)
# Sequence (P62593 whole entry, looked up): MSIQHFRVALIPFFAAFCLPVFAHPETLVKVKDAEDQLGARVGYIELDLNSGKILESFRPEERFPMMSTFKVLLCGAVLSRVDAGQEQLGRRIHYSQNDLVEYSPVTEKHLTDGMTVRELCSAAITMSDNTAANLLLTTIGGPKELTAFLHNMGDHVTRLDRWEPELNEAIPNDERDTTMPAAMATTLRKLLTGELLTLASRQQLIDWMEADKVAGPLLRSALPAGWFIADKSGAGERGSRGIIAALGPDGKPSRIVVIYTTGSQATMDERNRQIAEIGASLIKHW
# method.summary: Cell-free β-lactamase inhibition study (nitrocefin hydrolysis)
# condition.details: 10 min pre-incubation at 37° C., nitrocefin substrate
# Protocol: Cell-Free-β-Lactamase Inhibition Study Assays are performed with β-lactamases expressed in the pET system (Novagen, San Diego, Calif.) without signal peptides. They contain an N-terminal hexa-Histidine tag that is used for purification on Ni-NTA (Qiagen, Hilden, Germany). […] The initial velocity is determined and IC50 values are calculated using non-linear regression and sigmoidal dose response analysis with the PRISM 4.0 software (Graphpad Software Inc., San Diego, Calif.).

compound | test.system | IC50 (nM)
CC(=O)OCC=CCC(C=O)=C1O[C@@H]2CC(=O)N2C1C(=O)OCc1ccccc1 (some centres unmarked) | TEM-1 β-lactamase (Escherichia coli, UniProt P62593) | 140
CC(C)(C)C(=O)OCOC(=O)C1C(=C(C/C=C/c2ccccc2)C(=O)O)O[C@@H]2CC(=O)N12 (some centres unmarked) | TEM-1 β-lactamase (Escherichia coli, UniProt P62593) | 44.2
C=CC/C(CO)=C1\O[C@@H]2CC(=O)N2C1C(=O)OCc1ccccc1 (some centres unmarked) | TEM-1 β-lactamase (Escherichia coli, UniProt P62593) | 8020
C=CCC(C(=O)O)=C1O[C@@H]2CC(=O)N2C1C(=O)OC (some centres unmarked) | TEM-1 β-lactamase (Escherichia coli, UniProt P62593) | 122
COC(=O)C1C(=C(CCCc2ccccc2)C(=O)O)O[C@@H]2CC(=O)N12 (some centres unmarked) | TEM-1 β-lactamase (Escherichia coli, UniProt P62593) | 72.8
CC(C)(C)C(=O)OCOC(=O)C1(C/C=C/c2ccccc2)C(=CC=O)O[C@@H]2CC(=O)N21 (some centres unmarked) | TEM-1 β-lactamase (Escherichia coli, UniProt P62593) | 871
CC1C/C(=C2\O[C@@H]3CC(=O)N3C2C(=O)OCc2ccccc2)C(=O)O1 (single isomer, unassigned) [Example 45] | TEM-1 β-lactamase (Escherichia coli, UniProt P62593) | 1.7
O=C(OCc1ccccc1)C1C(=C(CO)C/C=C/c2ccccc2)O[C@@H]2CC(=O)N12 (some centres unmarked) | TEM-1 β-lactamase (Escherichia coli, UniProt P62593) | 4120

Where do these numbers come from? They come from patent US9120808B2.
